Where do the numbers come from? From patent US20050143285A1.

# EXPERIMENTAL_TARGET: Lymnaea stagnalis acetylcholine binding protein (AChBP) (Lymnaea stagnalis), P58154
# Sequence (P58154 20-229): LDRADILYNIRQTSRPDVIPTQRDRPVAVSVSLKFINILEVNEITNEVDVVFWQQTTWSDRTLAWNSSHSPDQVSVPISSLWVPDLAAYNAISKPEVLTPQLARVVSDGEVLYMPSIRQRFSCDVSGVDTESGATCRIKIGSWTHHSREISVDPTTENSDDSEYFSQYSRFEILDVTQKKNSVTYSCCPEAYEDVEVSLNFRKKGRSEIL
OUTCOME_MEASURE: Kd (nM)
Give the number; nM is assumed, so skip it.

Field Kd (entry α-bungarotoxin, P60615 22-95 (modifications not checked) IVCHTTATSPISAVTCPPGENLCYRKMWCDAFCSSRGKVVELGCAATCPSKKPYEEVTCCSTDKCNPHPKQRPG ) reads 1.8
